- Test system: SK-OV-3 ovarian
- Method Summary: NCI-60 one-dose screen, 48 h (100 = growth as untreated, 0 = no growth, -100 = all killed)
- Test Context: 10 µM unless noted
Compounds without any hit were thinned out: in the full panel of roughly 83,000, 20% have a hit.
Returns one of yes or no; yes when growth is >= 80%.

| Compound | Assigned Class |
| --- | --- |
| Cc1cc(NC(=O)CCc2ccc(N3C(N)=NC(N)=NC3(C)C)cc2)ccc1S(=O)(=O)F | no |
| COc1cc(CNCCc2ccc(Cl)cc2)cc(OC)c1O | yes |
| NC(=O)OCC(CO)(c1ccccc1)c1ccccc1 | yes |
| O=C(CCc1ccco1)NC1CCN(CC2(c3ccc(Cl)cc3)CCC2)CC1 | no |
| O=C1NC(=O)C(CN2C(=O)C3(c4ccccc42)[C@H](Cl)C(=O)N3c2ccccc2)C(=O)N1 (stereo partly specified) | yes |
| CC1(C)N=C(N)N=C(N)N1c1ccc(CCCCc2ccc(Cl)cc2S(=O)(=O)F)c(Cl)c1 | no |
| O=C1NC(=O)C(O)(C2(O)C(=O)NC(=O)NC2=O)C(=O)N1 | yes |
| CCC[CH2][Sn]([CH2]CCC)([CH2]CCC)[O]C(=O)c1ccc(Cl)cc1Cl | no |
| C=CCc1ccc(OC(=O)Cc2ccccc2)c(OC)c1 | yes |
| O=C(O)c1[nH]c(=O)[nH]c(=O)c1F | yes |
| O=C(CCl)NCNC(=O)CCl | yes |
